# System: LOX IMVI melanoma
# experimentSummary: NCI tumour cell line growth inhibition, 48 h; in the data active = GI50 below about 0.43 µM; inactive = the rest
Hello, when you answer, please use one of the following outcomes: YES = active, NO = inactive

Given `Oc1[nH]c2ccccc2c1/C=c1/ccc2c(c1)N=C(c1ccc(C(F)(F)F)cc1)N=2` , state the outcome it received in this test.
NO

Given COc1ccccc1[As]=[As]c1ccccc1OC (centres undefined) , state the outcome it received in this test.
YES

Given COc1cc2ncnc(Nc3ccc(Oc4ccnc(C)c4)c(C)c3)c2cc1NC(=O)CC1CCSS1 (centres undefined) , state the outcome it received in this test.
NO

Please examine the following record next.
Given `O=C(Nc1cc(F)c(F)cc1C(=O)O)c1ccc(-n2ccnc2)nn1` , state the outcome it received in this test.
NO

----------
# Tested on: UACC-257 melanoma
# experimentSummary: NCI tumour cell line growth inhibition, 48 h
measuredEndpoint: TGI

Consider the worked cases shown below.
Which measured TGI value corresponds to `O=C(Nc1ccc(Cl)cc1C(=O)O)c1ccc([N+](=O)[O-])cc1` ?
48 µM

Which measured TGI value corresponds to CCOC(=O)OC1C(Br)C2CCC1(C)C2(C)C (configuration not stated) ?
29.5 µM

Which measured TGI value corresponds to `C/C=C/C(=O)[O-].C/C=C/C(=O)[O-].N.N.N.N.[Co+3].[O-][Cl+3]([O-])([O-])[O-]` ?
> 100 µM

# context switch: different compound, same TGI
Which measured TGI value corresponds to `O=C1c2cccc(O)c2C(=O)c2c(O)cccc21` ?
> 100 µM

----------
Below, each of the compounds is paired with its reported TGI value.
# System: RPMI-8226 leukemia
# experimentSummary: NCI tumour cell line growth inhibition, 48 h
Just the number please, in µM, no unit attached.

Consider the worked cases shown below.
// fetch RPMI-8226 leukemia TGI for `COc1cc2cc3c4c(cc(OC)c(OC)c4c2cc1OC)CCN3C`
12.9

// fetch RPMI-8226 leukemia TGI for CCCCSCC(NC(=O)/C=C/c1c(C)[nH]c(=O)[nH]c1=O)C(=O)OC (stereo not given)
267

// fetch RPMI-8226 leukemia TGI for `Cc1ccc(Cl)c(NS(=O)(=O)c2ccc(-c3cnc(C4CC4)o3)cc2)c1`
24.8

// fetch RPMI-8226 leukemia TGI for C#CC1(O)C(COP(=O)(O)OCC2OC(n3cc(F)c(=O)[nH]c3=O)CC2O)OC(n2ccc(N)nc2=O)C1O (stereo not given)
0.119

// fetch RPMI-8226 leukemia TGI for `COc1ccc(-c2oc3cc(OC(C)=O)cc(OC(C)=O)c3c(=O)c2OC)cc1`
38.3

New cases:
// fetch RPMI-8226 leukemia TGI for COc1ccccc1[As]=[As]c1ccccc1OC (stereo not given)
0.0832

// fetch RPMI-8226 leukemia TGI for `COC(=O)c1cc(O)c(O)c(O)c1-c1c(O)c(O)c(O)c(SC[C@H](NC(=O)OCc2ccccc2)C(=O)OCc2ccccc2)c1C(=O)OC`
81.7

----------
# Tested on: SW-620 colon
# experimentSummary: NCI tumour cell line growth inhibition, 48 h; in the data active = GI50 below about 0.43 µM; inactive = the rest
Hello, when you answer, please use one of the following outcomes: active, inactive

Given `CCN(CC)CCN1c2nc3ccccc3cc2Sc2cc3ccccc3nc21` , state the outcome it received in this test.
inactive

Given `O=C(NCCOCCOCCOCCNC(=O)c1cc2c(o1)C(=O)c1ccccc1C2=O)NC12CC3CC(CC(C3)C1)C2` , state the outcome it received in this test.
inactive

Given CCC(C)C1=C(O)[N+]2([O-])Oc3ccc(C4=C(O)C(=O)C(c5ccc(O)cc5)=C(O)C4=O)cc3OC2(C(C)CC)C(=O)N1O (stereo unspecified) , state the outcome it received in this test.
inactive

Given `N#Cc1nc(C#N)c(Sc2ccccc2)c(Sc2ccccc2)c1Sc1ccccc1` , state the outcome it received in this test.
active

Given `c1ccc(-c2n(Cc3ccc4ccccc4c3)c3ccccc3[n+]2Cc2ccc3ccccc3c2)cc1` , state the outcome it received in this test.
active

Please examine the following record next.
Given `O=C(Nc1cc(F)c(F)cc1C(=O)O)c1ccc(-n2ccnc2)nn1` , state the outcome it received in this test.
inactive

----------
Below, each of the compounds is paired with its reported TGI value.
# System: OVCAR-8 ovarian
# experimentSummary: NCI tumour cell line growth inhibition, 48 h
Just the number please, in µM, no unit attached.

Consider the worked cases shown below.
Which measured TGI value corresponds to `O=C1Nc2ccccc2/C1=C\c1nc(-c2ccccc2F)n2ccccc12` ?
8.12

Which measured TGI value corresponds to COc1ccc(C2C(C#N)=C(N)Oc3c2sc2c(Br)cccc32)cc1 (stereo not given) ?
25.3

Which measured TGI value corresponds to CC(NC1=CC(=O)c2cccnc2C1=O)C(O)c1ccccc1 (stereo not given) ?
17.6

Which measured TGI value corresponds to Cc1ccc(S(=O)(=O)N/N=C2\CCCCCCCCCCC2CN(C)C)cc1 (stereo not given) ?
30.7

Which measured TGI value corresponds to Nc1cccc(OCC2CCCN3CCCCC23)c1 (stereo not given) ?
34.4

New cases:
Which measured TGI value corresponds to `ClCC[N-]CC[N-]CCCl.ClCC[N-]CC[N-]CCCl.[O-][Cl+3]([O-])([O-])O.[Zn+2]` ?
45.4

Which measured TGI value corresponds to `C=C1C(=O)O[C@H]2[C@H]1CC/C(COC(=O)/C=C\C(=O)NCc1ccc(Cn3c(=O)sn(CCI)c3=O)cc1)=C\CC[C@@]1(C)O[C@@H]21` ?
8.76

Which measured TGI value corresponds to CCCCSCC(NC(=O)/C=C/c1c(C)[nH]c(=O)[nH]c1=O)C(=O)OC (stereo not given) ?
246

Which measured TGI value corresponds to `CCOC(=O)c1c(N2CCCC2)[nH]c(=O)c(C(c2ccc(Cl)c([N+](=O)[O-])c2)c2c(O)c(C(=O)OCC)c(N3CCCC3)[nH]c2=O)c1O` ?
33.5

Which measured TGI value corresponds to `COc1c(C(C)(C)C)cc(CC2C(=O)C=CC2=O)cc1C(C)(C)C` ?
66.9

Which measured TGI value corresponds to O=CC1C(Cl)=Nc2nc3ccccc3n2C1c1ccccc1 (stereo not given) ?
52.9

----------
Below, each of the molecules is paired with its reported TGI value.
# Tested on: RPMI-8226 leukemia
# experimentSummary: NCI tumour cell line growth inhibition, 48 h
Just the number please, in µM, no unit attached.

Consider the worked cases shown below.
Which measured TGI value corresponds to `O=[N+]([O-])c1cc(-[n+]2cc([O-])on2)ccc1Cl` ?
79.8

Which measured TGI value corresponds to `COc1ccc(S(=O)(=O)Nc2c(/C=C\c3cc(OC)c(OC)c(OC)c3)ccc(OC)c2O)cc1` ?
22.4

Which measured TGI value corresponds to `CCOC(=O)c1c(C)nc2c(c1N)/C(=C/c1ccccn1)C(=O)N2Cc1ccccc1` ?
3.22

Which measured TGI value corresponds to `Nc1nc(Cl)c2ncn(Cc3cccc(CCl)c3)c2n1` ?
9.81

Which measured TGI value corresponds to Nc1cccc(OCC2CCCN3CCCCC23)c1 (stereo unspecified) ?
33.1

Which measured TGI value corresponds to `CC(C)OC/N=C(/N)NC#N` ?
61.2

Which measured TGI value corresponds to `CS(=O)(=O)c1ccc2nc(-c3ccc(O)cc3)sc2c1` ?
35.7

Which measured TGI value corresponds to `CC(=O)/C(Br)=C/c1ccc(Br)o1` ?
13.1

Which measured TGI value corresponds to `CCOC(=N)CC(=O)Nc1ccccc1` ?
22.8

Which measured TGI value corresponds to `CS(=O)(=O)c1cccc(Nc2ncc3cc(-c4ccccc4Cl)ccc3n2)c1` ?
21.4

New cases:
Which measured TGI value corresponds to CSc1ccc(NC(=O)C2c3[nH]c4ccccc4c3C3CCC(C(C)(C)C)CC3C2C(=O)O)cc1 (stereo unspecified) ?
58.6

Which measured TGI value corresponds to `c1ccc(-c2n(Cc3ccc4ccccc4c3)c3ccccc3[n+]2Cc2ccc3ccccc3c2)cc1` ?
1.47

Which measured TGI value corresponds to CCS(=O)c1c2cc(OC)ccc2nc2ccc(OC)cc12 (stereo unspecified) ?
16.5

Which measured TGI value corresponds to COc1cc([C@@H]2c3cc4c(cc3[C@@H](OC(=O)c3cccc(N)c3)C3COC(=O)[C@@H]32)OCO4)cc(OC)c1O (stereo partly specified) ?
43.9

----------
# Test system: HCT-116 colon
# experimentSummary: NCI tumour cell line growth inhibition, 48 h
measuredEndpoint: TGI (µM)
Just the number please, in µM, no unit attached.

Which measured TGI value corresponds to `CN(C)Cc1ccc(NC(=O)c2cncc(C#Cc3cnc(N)c4ncccc34)c2)cc1F` ?
3.48

Which measured TGI value corresponds to `CCC/C(Cl)=N/OC(NC(=O)OCC)(C(F)(F)F)C(F)(F)F` ?
34.6

----------
# System: U251 CNS
# experimentSummary: NCI tumour cell line growth inhibition, 48 h
measuredEndpoint: TGI (µM)
Just the number please, in µM, no unit attached.

// fetch U251 CNS TGI for CC(=O)c1ccccc1NC(=O)C(=O)C(C(=O)c1ccccc1-c1ccccc1)C1OC(=O)c2ccccc21 (centres undefined)
30.3

# context switch: different compound, same TGI
// fetch U251 CNS TGI for CCOc1ccc(C(C[N+](=O)[O-])Sc2ccccc2N)cc1 (centres undefined)
10.6
